// data source = PubChem BioAssay

experiment summary: binders of probe aFSTL3 on microarray, primary screen, stem cell growth factor project, biochemical, small-molecule microarray, fluorescence 635/667 (AID 1064);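 also: measures binding of the biotinylated anti-FSTL3 antibody to printed compounds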
cond: higher = more signal
measure name: composite z-score
One number for each entry.

Before answering, review these 3 worked examples.
# compound, composite z-score
records = [
    ("CC(C)CON=C1C[C@@H](O)[C@@H](O)[C@@H]2[C@@H]3C(=O)N(C(C)(C)C)C(=O)[C@@H]3CC[C@@H]12", -0.7),
    ("CCOC(=O)[C@H](CC(C)C)NC(=O)CCC1CC(OC(=O)NCc2ccc3c(c2)OCO3)CC2(CCCC(COC(=O)NCCOc3ccccc3)O2)O1 (some centres undefined)", -0.538),
    ("O=C1C[C@@H](O)[C@@H](O)[C@@H]2[C@@H]3C(=O)N(c4ccc(F)cc4F)C(=O)[C@@H]3CC[C@H]12", -0.517),
]

Now examine the next entry.
Q. Give the measured composite z-score for COc1ccc(OC[C@@H]2CC3[C@@H](c4ccc(Br)cc4)[C@H](C)CC[C@H]3C(=O)O2)cc1 (some centres undefined)
A. -0.416
